- System: ATP;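 further: ATP exposure 15 min at 22 °C before imaging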
- assay.summary: switch fluorescence ratio, 500 uM ATP over buffer (Cy3 cluster intensity, sum of 5 cycles each) (fold (ratio)); higher = stronger signal-on switching upon ATP binding; sequences stand for … in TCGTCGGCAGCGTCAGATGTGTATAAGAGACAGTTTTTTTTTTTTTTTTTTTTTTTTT…TC
- test.conditions: aptamer strand: ATP DNA aptamer (quencher-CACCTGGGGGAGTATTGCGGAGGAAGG + anchor), 100 nM annealed; ATP concentration: 500 uM
Listing of entries alongside the reported switch fluorescence ratio.

{"seq.string": "TTGTGTCGCT", "switch fluorescence ratio": 1}
{"seq.string": "TGGGTAAGGT", "switch fluorescence ratio": 0.993}
{"seq.string": "TGTTTTTCTT", "switch fluorescence ratio": 1.01}
{"seq.string": "TAAGGGTGCA", "switch fluorescence ratio": 0.994}
{"seq.string": "GGTGTTTGGG", "switch fluorescence ratio": 1}
{"seq.string": "CGAGATGTGG", "switch fluorescence ratio": 1.02}
{"seq.string": "ACCTGGGTAT", "switch fluorescence ratio": 1.01}
{"seq.string": "TATAGCTTCG", "switch fluorescence ratio": 1}
{"seq.string": "TTTTTGCTGC", "switch fluorescence ratio": 0.999}
{"seq.string": "CCACTGGGCA", "switch fluorescence ratio": 1.02}
{"seq.string": "CATTTGAGGG", "switch fluorescence ratio": 0.988}
{"seq.string": "TGGCGGTGGT", "switch fluorescence ratio": 0.978}
{"seq.string": "TGGAGGATTG", "switch fluorescence ratio": 0.991}
{"seq.string": "TCATGGGGTC", "switch fluorescence ratio": 0.975}
{"seq.string": "ATGTGGCCTA", "switch fluorescence ratio": 0.986}
{"seq.string": "TAAGTTATAT", "switch fluorescence ratio": 0.985}
{"seq.string": "TGGGAAAATG", "switch fluorescence ratio": 1.02}
{"seq.string": "AAGGTTAGGG", "switch fluorescence ratio": 0.984}
{"seq.string": "CAGCTGTGGT", "switch fluorescence ratio": 0.985}
{"seq.string": "CGGGGGCCGA", "switch fluorescence ratio": 1}
{"seq.string": "TATAAGACTA", "switch fluorescence ratio": 1.02}
{"seq.string": "ATGGGACGTT", "switch fluorescence ratio": 0.983}
{"seq.string": "CGGATTCGAG", "switch fluorescence ratio": 0.98}
{"seq.string": "GAGTAGGCTA", "switch fluorescence ratio": 0.973}
{"seq.string": "AGATCGAGTT", "switch fluorescence ratio": 0.99}
{"seq.string": "TCGTCTGTGG", "switch fluorescence ratio": 0.974}
